Tested on: hSARM1 (Homo sapiens)
Sequence (Q6SZW1 28-724): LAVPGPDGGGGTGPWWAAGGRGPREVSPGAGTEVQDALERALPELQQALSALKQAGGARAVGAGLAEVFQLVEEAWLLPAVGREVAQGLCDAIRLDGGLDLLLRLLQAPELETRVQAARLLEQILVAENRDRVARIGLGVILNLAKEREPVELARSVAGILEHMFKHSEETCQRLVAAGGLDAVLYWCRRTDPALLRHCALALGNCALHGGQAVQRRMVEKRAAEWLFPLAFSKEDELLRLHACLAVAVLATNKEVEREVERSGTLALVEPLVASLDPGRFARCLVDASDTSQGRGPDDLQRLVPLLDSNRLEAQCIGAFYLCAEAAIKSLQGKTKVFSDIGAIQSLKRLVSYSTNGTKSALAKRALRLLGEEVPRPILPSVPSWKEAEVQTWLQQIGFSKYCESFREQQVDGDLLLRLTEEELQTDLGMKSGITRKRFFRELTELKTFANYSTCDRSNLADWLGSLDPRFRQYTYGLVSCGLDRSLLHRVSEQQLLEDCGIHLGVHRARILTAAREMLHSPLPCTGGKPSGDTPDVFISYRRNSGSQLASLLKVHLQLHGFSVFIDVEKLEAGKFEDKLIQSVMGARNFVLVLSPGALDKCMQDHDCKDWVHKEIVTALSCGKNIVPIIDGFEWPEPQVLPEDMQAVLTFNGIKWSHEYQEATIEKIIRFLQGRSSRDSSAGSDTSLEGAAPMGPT
Method notes: Human SARM1 activity measurement in HEK293 cells transiently transfected with ΔN-hSARM1 (PC6 fluorescent probe)
Format: cell-based
Parameters: expressed in transfected cells; host or cells: HEK293, pcDNA3 expression vector
Condition summary: inhibition rate; compound 30 µM; PC6 50 µM; HEK293 cells expressing ΔN-hSARM1; approximately 48 hours from transfection; read-out: Evaluation on hSARM1 inhibitory
Measurement kind: inhibition at 30 µM

O=C(/C=C/c1cccnc1)NCc1ccc(NC(=O)c2ccccc2)nc1 [compound 77] :: > 75%
O=C(NCc1cccc(CNC(=O)c2cccnc2)n1)c1ccccc1 [Compound 149] :: > 25%
O=C(NCCCOCCOCCCNC(=O)c1cccnc1)c1cccnc1 [compound 35] :: > 75%
COC(=O)c1ccc(OCCOCCNC(=O)c2cccnc2)cc1 [compound 32] :: > 50%
O=C(COc1cccc(C(F)(F)F)c1)Nc1ccc(CNC(=O)c2cccnc2)cn1 [Compound 175] :: > 75%
